# key: entry, value: relative viability
system: NCI-H1651; experiment: relative viability (nuclei count vs DMSO), 5 days (fraction); higher = more cells survive; conditions: first compound 0.05 µM
// keep it numeric: no unit symbol after the value

# count of solved cases: 6
>>> data_value("Nc1ccn([C@@H]2O[C@H](CO)[C@@H](O)[C@@H]2O)c(=O)n1 [Cytarabine] + CC(=O)c1c(C)c2cnc(Nc3ccc(N4CCNCC4)cn3)nc2n(C2CCCC2)c1=O [Palbociclib] (partner 0.5 µM)")
0.551
>>> data_value("COc1cc2nccc(Oc3ccc(NC(=O)Nc4cc(C)on4)c(Cl)c3)c2cc1OC [Tivozanib] + C[C@]1(O)C[C@@H](c2nc(-c3ccc4ccc(-c5ccccc5)nc4c3)c3c(N)nccn32)C1 [Linsitinib] (partner 1 µM)")
0.87
>>> data_value("Nc1ccn([C@@H]2O[C@H](CO)[C@@H](O)[C@@H]2O)c(=O)n1 [Cytarabine] + Cc1cc(Nc2cc(N3CCN(C)CC3)nc(Sc3ccc(NC(=O)C4CC4)cc3)n2)n[nH]1 [Tozasertib] (partner 0.1 µM)")
0.746
>>> data_value("Nc1ccn([C@@H]2O[C@H](CO)[C@@H](O)[C@@H]2O)c(=O)n1 [Cytarabine] + NC(=O)Nc1cc(-c2cccc(F)c2)sc1C(=O)N[C@H]1CCCNC1 [AZD7762] (partner 0.2 µM)")
0.297
>>> data_value("COc1cc2nccc(Oc3ccc(NC(=O)Nc4cc(C)on4)c(Cl)c3)c2cc1OC [Tivozanib] + Cc1nc(NC(=O)N2CCC[C@H]2C(N)=O)sc1-c1ccnc(C(C)(C)C(F)(F)F)c1 [Alpelisib] (partner 2 µM)")
0.781
>>> data_value("COc1cc2nccc(Oc3ccc(NC(=O)Nc4cc(C)on4)c(Cl)c3)c2cc1OC [Tivozanib] + CS(=O)(=O)N1CCN(Cc2cc3nc(-c4cccc5[nH]ncc45)nc(N4CCOCC4)c3s2)CC1 [Pictilisib] (partner 1 µM)")
0.613

In plain terms, Nc1ccn([C@@H]2O[C@H](CO)[C@@H](O)[C@@H]2O)c(=O)n1 [Cytarabine] + CC(C)C[C@H](NC(=O)[C@H](Cc1ccccc1)NC(=O)c1cnccn1)B(O)O [Bortezomib] (partner 0.002 µM) has a documented relative viability of 0.808

In plain terms, Nc1ccn([C@@H]2O[C@H](CO)[C@@H](O)[C@@H]2O)c(=O)n1 [Cytarabine] + Nc1nc2[nH]cc(CCc3ccc(C(=O)N[C@@H](CCC(=O)O)C(=O)O)cc3)c2c(=O)[nH]1 [Pemetrexed] (partner 0.2 µM) has a documented relative viability of 0.223

In plain terms, COc1cc2nccc(Oc3ccc(NC(=O)Nc4cc(C)on4)c(Cl)c3)c2cc1OC [Tivozanib] + CC(=O)Nc1cccc(-n2c(=O)n(C3CC3)c(=O)c3c(Nc4ccc(I)cc4F)n(C)c(=O)c(C)c32)c1 [Trametinib] (partner 0.02 µM) has a documented relative viability of 0.821

In plain terms, Nc1ccn([C@@H]2O[C@H](CO)[C@@H](O)[C@@H]2O)c(=O)n1 [Cytarabine] + CS(=O)(=O)CCNCc1ccc(-c2ccc3ncnc(Nc4ccc(OCc5cccc(F)c5)c(Cl)c4)c3c2)o1 [Lapatinib] (partner 2 µM) has a documented relative viability of 1.02

In plain terms, COc1cc2nccc(Oc3ccc(NC(=O)Nc4cc(C)on4)c(Cl)c3)c2cc1OC [Tivozanib] + CS(=O)(=O)CCNCc1ccc(-c2ccc3ncnc(Nc4ccc(OCc5cccc(F)c5)c(Cl)c4)c3c2)o1 [Lapatinib] (partner 2 µM) has a documented relative viability of 0.863
